Data origin, for the record: PubChem BioAssay AID1825

Assay: IEC-6 cell viability reduction – luminescence, cytotoxicity control for KLF5 inhibitor project, primary screen (AID 1825);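 also: 0% = plate median of test compound wells and 100% = cytotoxic reference compound wells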
Conditions: IEC-6 cytotoxicity, at 5 µM
The campaign covered roughly 290,000 compounds. About 2,300 (0.79%) were called active. Rule as the data show it: active = inhibition above about 22%; inactive = the rest. The full list was thinned out, with actives kept by preference.
Classes used: active, inactive

>>> class_assignment("COc1ccccc1N(CC(=O)N/N=C(\\C)c1ccccc1O)S(=O)(=O)c1ccc(C)cc1")
"active"
>>> class_assignment("Clc1cccc(N=C2NN=C(c3ccc4c(c3)OCCO4)CS2)c1")
"inactive"
>>> class_assignment("CN(Cc1ccccc1)S(=O)(=O)c1nnc(NC(=O)c2ccccc2F)s1")
"inactive"
>>> class_assignment("CN(CCc1ccccn1)C1CCCN(S(=O)(=O)c2ccccc2Cl)C1 (stereo not given)")
"inactive"
>>> class_assignment("COc1ccccc1NC(=O)CN(c1ccccc1OC)S(=O)(=O)c1ccccc1")
"inactive"
>>> class_assignment("CN(C)c1nc(=Nc2cccc(Cl)c2)ss1")
"active"
>>> class_assignment("COc1ccc(-c2cn(-c3ccc(OC)cc3)c(=S)[nH]2)cc1")
"inactive"
>>> class_assignment("Cc1ccc(NC(=O)Cn2nnc(C(=O)NCc3ccco3)c2N)c(C)c1")
"inactive"
>>> class_assignment("COc1ccc(S(=O)(=O)N(CC(=O)N/N=C/c2ccccc2C(=O)O)c2ccccc2OC)cc1")
"inactive"
>>> class_assignment("O=C(N=C1SC2CS(=O)(=O)CC2N1c1cc(Cl)ccc1Cl)C1CC1 (stereo not given)")
"inactive"

---

// reported inhibition for each item listed
Assay: IEC-6 cell viability reduction – luminescence, cytotoxicity control for KLF5 inhibitor project, primary screen (AID 1825);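 also: 0% = plate median of test compound wells and 100% = cytotoxic reference compound wells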
Details: IEC-6 cytotoxicity, at 5 µM, active compounds read high
In all, about 290,000 compounds went through this assay and about 2,300 (0.79%) were called active. Many of the other results were omitted from the sample, so actives are more common in it than they were.
quantity-measured: inhibition (%)

>>> readout_value("O=C(Nc1nnc(C2CC2)s1)c1cc(Cl)sc1Cl")
0.1
>>> readout_value("Cc1onc(C(=O)NCc2ccc(F)cc2)c1[N+](=O)[O-]")
-2.3
>>> readout_value("Cc1cccc(NC(=S)NC(=O)c2ccc(Br)o2)c1")
1.6
>>> readout_value("Cc1cccc(NC(=O)c2ccc([N+](=O)[O-])o2)c1")
66.2
>>> readout_value("COc1ccccc1N1CCN(C(=O)c2ccc(Cl)c(S(=O)(=O)N3CCCC3)c2)CC1")
-2.9
>>> readout_value("O=C(Nc1ccc(Br)cn1)c1ccc([N+](=O)[O-])o1")
16.7
>>> readout_value("Cc1cccc(NC(=O)c2sc(-c3ccccc3)nc2-c2ccc([N+](=O)[O-])cc2)c1")
-10
>>> readout_value("O=C(O)c1cc([N+](=O)[O-])c(Nc2cccc3ccccc23)c([N+](=O)[O-])c1")
4.7
>>> readout_value("Cc1cnc(NC(=O)c2ccccn2)s1")
8.9
>>> readout_value("Cc1[nH]c2ccc(C(=O)N3CCN(C)CC3)cc2c1C")
0.4
>>> readout_value("CCOc1ccccc1N1CCN(C(=O)c2ccc3[nH]c(C)c(C)c3c2)CC1")
36.2

---

Experiment: IEC-6 cell viability reduction – luminescence, cytotoxicity control for KLF5 inhibitor project, primary screen (AID 1825);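 also: 0% = plate median of test compound wells and 100% = cytotoxic reference compound wells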
Details: IEC-6 cytotoxicity, at 5 µM
Screen size: about 290,000 compounds; about 2,300 (0.79%) were called active. Rule as the data show it: active = inhibition above about 22%; inactive = the rest. What follows is part of a selection rich in actives, with near analogues and random picks from the rest.
Classes used: active, inactive

>>> class_assignment("Cc1ccc([N+](=O)[O-])cc1S(=O)(=O)N1CCCN(C)CC1")
"inactive"
>>> class_assignment("CCOC(=O)N1CCN(CCC(=O)Nc2ccccc2)CC1")
"inactive"
>>> class_assignment("COc1cccc2sc(N(CCCN(C)C)C(=O)CCS(=O)(=O)c3ccccc3)nc12")
"active"
>>> class_assignment("COc1ccc(C(=O)Nc2ccc(N3CCC(C)CC3)cc2)cc1Br")
"inactive"
>>> class_assignment("COc1ccc(N2CCN(S(=O)(=O)c3ccc4c(c3)NC(=O)C(C)C(=O)N4)CC2)cc1 (centres undefined)")
"inactive"
>>> class_assignment("COc1ccc(NC(=O)c2cccc3c2C(=O)N(CC2CCCO2)C3)cc1OC (centres undefined)")
"inactive"
>>> class_assignment("COc1ccc(C(=O)NCC(=O)N/N=C/c2cccnc2)cc1")
"inactive"
>>> class_assignment("CSc1nnc2ccc(-c3ccc(C)cc3)nn12")
"active"
>>> class_assignment("COc1ccc(CNC(=O)C(C)n2nc(C)c3c(C)n(-c4ccccc4)nc3c2=O)c(OC)c1 (centres undefined)")
"inactive"
>>> class_assignment("CCSc1ncc(Cl)c(C(=O)Nc2cc(C)ccc2C)n1")
"inactive"
>>> class_assignment("O=C(Nc1ccccc1Cl)Nn1cnnc1")
"inactive"
>>> class_assignment("Cc1ccc(OCC(=O)Nc2ccc(N3CCN(C(=O)c4ccco4)CC3)cc2)c(C)c1")
"inactive"
>>> class_assignment("CC(C)CC(=O)N1CCN(Cc2ccccc2Br)CC1")
"inactive"
>>> class_assignment("Cc1cccc(NC(=O)c2nc(S(=O)(=O)Cc3ccccc3)ncc2Cl)c1")
"active"
>>> class_assignment("CSc1ncc(Cl)c(C(=O)Nc2cc(C)ccc2C)n1")
"inactive"
>>> class_assignment("COc1ccc(-c2nc3n(c(=O)c2C#N)CCS3)c(OC)c1")
"inactive"
>>> class_assignment("COc1ccc(N(C(=O)CNC(=O)c2ccco2)C(C(=O)NCC2CCCO2)c2ccccc2)cc1Cl (centres undefined)")
"inactive"
>>> class_assignment("O=c1c2c(-c3ccccc3)ccnc2[nH]n1-c1ccccc1")
"inactive"
>>> class_assignment("Cc1cccc(OCc2ccc(C(=O)Nc3ccc(F)cc3)cc2)c1")
"inactive"
>>> class_assignment("CN1CCC(CN)(N2CCN(c3ccccc3)CC2)CC1")
"inactive"
>>> class_assignment("Fc1cccc(CSc2nnc3ccc(-c4ccncc4)nn23)c1")
"inactive"
>>> class_assignment("CC(C)(C)c1cc[n+](-c2[nH]c(=O)sc2/C=N/N=C(\\[O-])c2ccccc2)cc1")
"inactive"
>>> class_assignment("Cc1cccc(NC(=O)C(C)SCc2ccccc2)c1 (centres undefined)")
"inactive"
>>> class_assignment("CCOc1ccc(NC(=O)c2nc(SCC)ncc2Cl)cc1")
"inactive"
>>> class_assignment("Cc1cccc2sc(N(CCCN(C)C)C(=O)CCS(=O)(=O)c3ccccc3)nc12")
"inactive"
>>> class_assignment("COCCn1c(SCC(=O)Nc2nc(C)cs2)nnc1C(C)C")
"inactive"
>>> class_assignment("Cc1ccc(S(=O)(=O)CC(=O)Nc2nnc(C)s2)cc1")
"inactive"
>>> class_assignment("O=C(NCCOc1cccnc1)c1ccc(OC2CCN(Cc3ccccn3)CC2)cc1")
"active"
>>> class_assignment("CN(C(=O)CN1C(=O)S/C(=C\\c2ccccc2F)C1=O)C1CCS(=O)(=O)C1 (centres undefined)")
"inactive"
>>> class_assignment("COc1cccc2cc(-c3cc(=O)oc4cc(C)c(O)cc34)oc12")
"inactive"
>>> class_assignment("CC(=O)Nc1ccc(Nc2ncnc3c2nnn3Cc2ccccc2Cl)cc1")
"inactive"
>>> class_assignment("O=C(c1ccc(OC2CCN(Cc3ccccn3)CC2)cc1)N1CCCCCC1")
"inactive"
>>> class_assignment("O=C(N/N=C/c1coc2ccccc2c1=O)c1cc2ccccc2o1")
"inactive"
>>> class_assignment("Cc1cc(C(=O)NC2CC(C)(C)Cc3c2cnn3-c2ccccc2)n[nH]1 (centres undefined)")
"inactive"
>>> class_assignment("Cc1ccc(-c2nn(-c3ccccc3)cc2/C=C2\\SC(=S)N(CCCCCC(=O)O)C2=O)o1")
"inactive"
>>> class_assignment("COc1ccc(NC(=O)c2cccc(NC(=O)c3ccco3)c2)c(OC)c1")
"inactive"
>>> class_assignment("COc1cccc2sc(N(CCCN(C)C)C(=O)C(c3ccccc3)c3ccccc3)nc12")
"inactive"
>>> class_assignment("Cc1nnc(NC(=O)Nc2ccc(Cl)c(Cl)c2)s1")
"inactive"
>>> class_assignment("O=C(CSc1nnc2ccc(-c3ccncc3)nn12)N1CCCCC1")
"inactive"
>>> class_assignment("COc1ccc(C2=Nc3cc(C)ccc3OC2)cc1")
"inactive"
>>> class_assignment("CCc1cccc(NC(=O)C2CCCN(S(=O)(=O)c3ccc4[nH]c(=O)ccc4c3)C2)c1 (centres undefined)")
"inactive"
>>> class_assignment("CCOC(=O)C1=C(N)N2C(=O)C(C)SC2=C(C(=O)OCC)C1c1cc(OC)c(OC)c(OC)c1 (centres undefined)")
"active"
>>> class_assignment("Fc1ccc(-n2c(Cc3ccccc3)nnc2SCc2nc(-c3ccc(Cl)cc3)no2)cc1")
"inactive"
>>> class_assignment("COc1cccc(C(=O)Nc2ccc(N3CCCC3)cc2)c1")
"active"

---

Assay: IEC-6 cell viability reduction – luminescence, cytotoxicity control for KLF5 inhibitor project, primary screen (AID 1825);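 also: 0% = plate median of test compound wells and 100% = cytotoxic reference compound wells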
Conditions: IEC-6 cytotoxicity, at 5 µM, active compounds read high
Among all 290,000 compounds or so, about 2,300 (0.79%) were called active. The list comes from a sample in which actives are over-represented; it also holds close analogues and randomly drawn compounds.
quantity-measured: inhibition (%)

>>> readout_value("Cc1cccc2c1N(CC(=O)OC(C)C)C(=O)C2=O")
2.7
>>> readout_value("COc1ccc(-c2ccc(CCC(=O)O)n2NC(=O)c2ccc(C(C)(C)C)cc2)cc1")
-6.8
>>> readout_value("Cc1ccc(/C=C2\\CCn3c2nc2cc(C(=O)O)ccc2c3=O)c(C)c1")
1.8
>>> readout_value("CCCC1=Nc2cc(C(=O)NCc3ccco3)ccc2Sc2ccccc21")
62.9
>>> readout_value("CC1CCCN(S(=O)(=O)c2ccc(C(=O)Nc3nnc(-c4ccncc4)o3)cc2)C1 (stereo unspecified)")
-1
>>> readout_value("COc1ccccc1N1CCN(C(=O)c2cc(=O)c3cc(C)ccc3o2)CC1")
17.9
>>> readout_value("COc1ccccc1N1CCN(C(=O)c2cc(=O)c3cc(C)cc(C)c3o2)CC1")
93.6
>>> readout_value("COC(=O)c1c(NC(C)=O)sc(C(=O)Nc2ccccc2OC)c1C")
-1.2
>>> readout_value("O=C(NCCCn1ccnc1)c1cc(Br)c(Br)s1")
-4.3
>>> readout_value("COc1ccccc1Oc1ccc(N/C=C2/CCCC2=O)cc1")
-8.7
>>> readout_value("Cc1nn(C(C)C(=O)NCCC2=CCCCC2)c(=O)c2nn(-c3ccccc3)c(C)c12 (stereo unspecified)")
-2.9
>>> readout_value("CC1CCCCN1S(=O)(=O)c1ccc(C(=O)Nc2nnc(-c3cccs3)o2)cc1 (stereo unspecified)")
29.2
>>> readout_value("COc1cc(C(=O)NN(CCC#N)C2=NS(=O)(=O)c3ccccc32)cc(OC)c1OC")
-4.2
>>> readout_value("CNC[C@H](CC1CCCCC1)NC[C@H](NCCC1CCCC1)[C@H](C)O")
36.1
>>> readout_value("CCCC1=Nc2cc(C(=O)NCCN3CCCC3)ccc2Sc2ccccc21")
-2.7
>>> readout_value("CCC1=Nc2cc(C(=O)NCCN3CCCC3)ccc2Sc2ccc(C)cc21")
2.7
>>> readout_value("CC[C@H]1CN2CCc3cc(OC)c(OC)cc3[C@@H]2C[C@@H]1C[C@H]1NCCc2cc(OC)c(OC)cc21")
98.9
>>> readout_value("CC(C)OC(=O)CN1C(=O)c2ccccc2C1=O")
1.2
>>> readout_value("COc1cc2c(cc1O)[C@H](Cc1ccc(Oc3cc(C[C@@H]4NCCc5cc(OC)c(O)cc54)ccc3O)cc1)NCC2")
1.5
>>> readout_value("Cc1cccc(N2C(=O)N3[C@H](c4ccc(F)cc4)[C@@H]4C(=O)N(C5CCCCC5)C(=O)[C@@H]4[C@]3(Cc3ccccc3)C2=O)c1")
-6
>>> readout_value("CC(=O)NCCc1ccc(S(=O)(=O)Nc2ccc(C)c(S(=O)(=O)N3CCOCC3)c2)cc1")
2.5
